// data source = patent US8183414B2

- TEST SYSTEM: α2A adrenergic receptor (Homo sapiens)
- Construct: expressed in transfected cells
- Sequence (P08913 whole entry): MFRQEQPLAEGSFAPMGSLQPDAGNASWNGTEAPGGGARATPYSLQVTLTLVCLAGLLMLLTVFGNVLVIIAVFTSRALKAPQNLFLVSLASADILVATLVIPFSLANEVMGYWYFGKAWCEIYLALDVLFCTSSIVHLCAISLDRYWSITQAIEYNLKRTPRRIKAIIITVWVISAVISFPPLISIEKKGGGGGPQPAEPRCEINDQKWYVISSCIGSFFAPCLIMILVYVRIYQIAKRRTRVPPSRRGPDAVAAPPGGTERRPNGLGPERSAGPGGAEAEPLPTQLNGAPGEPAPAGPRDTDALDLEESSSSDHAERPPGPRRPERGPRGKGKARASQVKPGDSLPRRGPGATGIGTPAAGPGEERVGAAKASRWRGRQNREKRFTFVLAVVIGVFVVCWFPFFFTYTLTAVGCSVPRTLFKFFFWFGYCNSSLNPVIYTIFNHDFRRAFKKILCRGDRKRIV
- EXPERIMENT SUMMARY: RSAT (Receptor Selection and Amplification Technology) assay, α2A
- Format: cell-based
- PROTOCOL CONDITIONS: cells expressing the receptor alone; receptor-mediated growth response; NA = not active
PROPERTY NAME: EC50

Problem: Item Cc1cncc(CC(NC2=NCCC2)c2cccc(Cl)c2)c1 (stereo not shown) [Compound 29] has what recorded EC50?
Solution: 293 nM

---

- TEST SYSTEM: α2B adrenergic receptor (Homo sapiens)
- Construct: expressed in transfected cells
- Sequence (P18089 1-450): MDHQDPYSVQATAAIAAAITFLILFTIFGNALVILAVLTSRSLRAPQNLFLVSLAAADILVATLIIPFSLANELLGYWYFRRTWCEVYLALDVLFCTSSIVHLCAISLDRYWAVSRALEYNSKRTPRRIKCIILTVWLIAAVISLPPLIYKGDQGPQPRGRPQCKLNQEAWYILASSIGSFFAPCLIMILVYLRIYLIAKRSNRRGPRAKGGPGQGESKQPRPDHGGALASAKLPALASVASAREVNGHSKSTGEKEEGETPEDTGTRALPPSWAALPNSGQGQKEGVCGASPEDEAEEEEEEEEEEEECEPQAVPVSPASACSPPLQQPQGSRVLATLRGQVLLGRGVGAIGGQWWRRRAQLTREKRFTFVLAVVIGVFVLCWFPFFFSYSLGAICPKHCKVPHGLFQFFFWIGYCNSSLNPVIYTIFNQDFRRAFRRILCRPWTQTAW
- EXPERIMENT SUMMARY: RSAT (Receptor Selection and Amplification Technology) assay, α2B
- Type: cell-based
- PROTOCOL CONDITIONS: cells expressing the receptor alone; receptor-mediated growth response; NA = not active; read-out: RSAT EC50 α2B
PROPERTY NAME: EC50

Example cases with answers are listed next.
COMPOUND	REPORTED MEASUREMENT
c1ccc(C(Cc2cccnc2)NC2=NCCC2)cc1 (stereo not drawn) [Compound 25]	81.7 nM
c1ccc(C(Cc2ccncc2)NC2=NCCC2)cc1 (stereo not drawn) [Compound 21]	59.2 nM
Clc1ccc(CC(NC2=NCCC2)c2cccc(Cl)c2Cl)c(Cl)c1 (stereo not drawn) [Compound 22]	7.1 nM
Clc1cc(Cl)cc(CC(NC2=NCCC2)c2cccc(Cl)c2Cl)c1 (stereo not drawn) [Compound 20]	2.2 nM
Cc1cccc(C(Cc2ccncc2)NC2=NCCC2)c1C (single isomer, unassigned) [Compound 18]	3.1 nM
COc1cccc(CC(NC2=NCCC2)c2cccc(Cl)c2Cl)c1 (stereo not drawn) [Compound 13]	4 nM
Cc1cccc(C(Cc2ccncc2)NC2=NCCC2)c1C (single isomer, unassigned) [Compound 19]	210 nM
Clc1cccc(C(Cc2ccccc2)NC2=NCCC2)c1 (stereo not drawn) [Compound 8]	11.6 nM

As a next step, examine the compound that follows.
Problem: Query: EC50; subject: Clc1cccc(C(Cc2ccncc2)NC2=NCCC2)c1Cl (stereo not drawn) [Compound 1]
Solution: 8.9 nM

---

- TEST SYSTEM: UniProtKB P18825
- Sequence (P18825 1-462): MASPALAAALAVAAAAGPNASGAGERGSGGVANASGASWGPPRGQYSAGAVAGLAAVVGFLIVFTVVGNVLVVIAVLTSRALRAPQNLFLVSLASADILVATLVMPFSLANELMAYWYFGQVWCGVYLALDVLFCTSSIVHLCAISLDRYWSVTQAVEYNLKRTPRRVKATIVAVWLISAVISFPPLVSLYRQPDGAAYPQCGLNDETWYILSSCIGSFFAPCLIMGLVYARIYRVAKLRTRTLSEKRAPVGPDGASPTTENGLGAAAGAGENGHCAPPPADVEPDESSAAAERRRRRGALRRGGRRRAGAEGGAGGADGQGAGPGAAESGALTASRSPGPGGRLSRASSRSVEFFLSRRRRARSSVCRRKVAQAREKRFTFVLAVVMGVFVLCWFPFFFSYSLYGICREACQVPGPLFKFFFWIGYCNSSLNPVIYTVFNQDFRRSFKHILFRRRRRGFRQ
- EXPERIMENT SUMMARY: RSAT (Receptor Selection and Amplification Technology) assay, α2C
- PROTOCOL CONDITIONS: cells expressing the receptor alone; receptor-mediated growth response; NA = not active
- Method: Cells expressing each of the alpha-2 adrenergic receptors alone were incubated with the various compounds and a receptor-mediated growth response was measured.
Attribute: pEC50
Conceptually, pEC50 converts a concentration in mol/L into minus its log10.

Problem: So what does the record say about pEC50 for COc1cccc(CC(NC2=NCCC2)c2cccc(Cl)c2Cl)c1 (stereo not drawn) ?
Solution: 7.89

Problem: Param item = Clc1ccccc1C(Cc1ccncc1)NC1=NCCC1 (stereo not drawn) ; retrieve measured pEC50.
Solution: 7.99

Problem: Report pEC50 for Clc1ccc(Cl)c(CC(NC2=NCCC2)c2cccc(Cl)c2Cl)c1 (stereo not drawn) please.
Solution: 7.90

---

- TEST SYSTEM: α2C adrenergic receptor (Homo sapiens)
- Construct: expressed in transfected cells
- Sequence (P18825 1-462): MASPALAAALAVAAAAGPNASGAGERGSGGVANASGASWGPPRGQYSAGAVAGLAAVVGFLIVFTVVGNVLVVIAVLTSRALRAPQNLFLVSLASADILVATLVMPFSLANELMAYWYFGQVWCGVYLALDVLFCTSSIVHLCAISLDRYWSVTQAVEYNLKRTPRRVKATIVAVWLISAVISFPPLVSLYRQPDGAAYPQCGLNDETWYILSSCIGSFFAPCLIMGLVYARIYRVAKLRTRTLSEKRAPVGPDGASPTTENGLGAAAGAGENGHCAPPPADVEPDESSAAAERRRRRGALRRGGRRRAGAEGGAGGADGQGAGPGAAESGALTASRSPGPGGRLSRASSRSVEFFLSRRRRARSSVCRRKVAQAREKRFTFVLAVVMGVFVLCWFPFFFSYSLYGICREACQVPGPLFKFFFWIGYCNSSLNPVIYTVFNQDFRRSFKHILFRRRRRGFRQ
- EXPERIMENT SUMMARY: RSAT (Receptor Selection and Amplification Technology) assay, α2C
- Format: cell-based
- PROTOCOL CONDITIONS: relative efficacy compared to a standard full agonist
PROPERTY NAME: RSAT Rel Eff α2C

COMPOUND	REPORTED MEASUREMENT
COc1cccc(CC(NC2=NCCC2)c2cccc(Cl)c2Cl)c1 (stereo not drawn) [Compound 13]	(0.36)
Cc1cncc(CC(NC2=NCCC2)c2cccc(Cl)c2)c1 (stereo not drawn) [Compound 29]	(0.36)
Fc1c(Cl)cccc1C(Cc1ccccc1)NC1=NCCC1 (stereo not drawn) [Compound 14]	(0.36)
Cc1cccc(C(Cc2ccncc2)NC2=NCCC2)c1C (stereo not drawn) [Compound 2]	(0.37)
Clc1ccccc1C(Cc1ccccc1)NC1=NCCC1 (stereo not drawn) [Compound 10]	(0.37)

// below: RSAT Rel Eff α2C requested for another compound
Problem: Form field: reported RSAT Rel Eff α2C of c1ccc(CC(NC2=NCCC2)c2ccccc2)cc1 (stereo not drawn) [Compound 3]
Solution: (0.36)

---

- TEST SYSTEM: α2B adrenergic receptor (Homo sapiens)
- Construct: expressed in transfected cells
- EXPERIMENT SUMMARY: RSAT (Receptor Selection and Amplification Technology) assay, α2B
- Format: cell-based
- PROTOCOL CONDITIONS: cells expressing the receptor alone; receptor-mediated growth response; NA = not active; read-out: RSAT EC50 α2B
pEC50: −log10 of the molar value.
Use T when the recorded pEC50 is no lower than 8; use F when it is lower.

COMPOUND	ASSIGNED LABEL
Cc1cccc(C(Cc2cncc(C)c2C)NC2=NCCC2)c1 (stereo not shown) [Compound 34]	T
Clc1cccc(C(CCc2ccccc2)NC2=NCCC2)c1Cl (stereo not shown) [Compound 23]	F

Problem: # bool: pEC50 of Cc1cccc(C(Cc2ccccc2)NC2=NCCC2)c1C (stereo not shown) [Compound 6] >= 8
Solution: T

Problem: Is reported pEC50 greater than or equal to 8 here: Fc1cccc(Cl)c1CC(NC1=NCCC1)c1cccc(Cl)c1Cl (stereo not shown) [Compound 17]
Solution: F

---

- TEST SYSTEM: α2C adrenergic receptor (Homo sapiens)
- EXPERIMENT SUMMARY: RSAT (Receptor Selection and Amplification Technology) assay, α2C
- PROTOCOL CONDITIONS: cells expressing the receptor alone; receptor-mediated growth response; NA = not active
// assign T if EC50 falls strictly below 20 nM, else F (ties count as F)

Recorded results for 5 molecules are shown here.
MOLECULE	TEST SYSTEM	ASSIGNED LABEL
c1ccc(C(Cc2ccncc2)NC2=NCCC2)cc1 (stereo not shown)	α2C adrenergic receptor (Homo sapiens)	F
Clc1ccccc1C(Cc1ccccc1)NC1=NCCC1 (stereo not shown)	α2C adrenergic receptor (Homo sapiens)	T
Clc1cccc(C(Cc2ccncc2)NC2=NCCC2)c1Cl (stereo not shown)	α2C adrenergic receptor (Homo sapiens)	F
Cc1cccc(C(Cc2ccncc2)NC2=NCCC2)c1C (stereo not shown) [Compound 2]	α2C adrenergic receptor (Homo sapiens)	F
Cc1cncc(CC(NC2=NCCC2)c2cccc(Cl)c2)c1 (stereo not shown)	α2C adrenergic receptor (Homo sapiens)	F

Problem: Quick check: EC50 of c1ccc(CC(NC2=NCCC2)c2ccccc2)cc1 (stereo not shown) under 20 nM?
Solution: T

Problem: I'd appreciate it if you could check whether Fc1c(Cl)cccc1C(Cc1ccccc1)NC1=NCCC1 (stereo not shown) has EC50 smaller than 20 nM.
Solution: T

Problem: For the molecule Clc1cc(Cl)cc(CC(NC2=NCCC2)c2cccc(Cl)c2Cl)c1 (stereo not shown) , is EC50 under 20 nM?
Solution: T

Problem: Determine if Cc1ccccc1CC(NC1=NCCC1)c1cccc(Cl)c1 (stereo not shown) shows EC50 strictly lower than 20 nM.
Solution: T
